IC50 overview
System: OV
Assay: XTT cytotoxicity assay, OV
Assay type: cell-based
Return type: number; implicit unit µg/mL.

Examples from the recorded data:
Exam item: # IC50 lookup, item CCCCCCCCC1(C)SC(=O)C=C1OCC(=O)NNc1ccccc1 (stereo not shown) [Compound 10]
Marked response: 13.2

Exam item: Would you mind doing CCCCCCCCC1(C)SC(=O)C=C1OCC(=O)NNc1ccccc1Cl (stereo not shown) [Compound 19] as well?
Marked response: 9.4

Exam item: Also, CCCCCCCCC1(C)SC(=O)C=C1OCC(=O)NNc1cc(C(F)(F)F)ccc1Cl (stereo not shown) [Compound 16] please.
Marked response: 7.2

Exam item: Please do the same for CCCCCCCCC1(C)SC(=O)C=C1OCC(=O)NNc1ccc(C(F)(F)F)cc1 (stereo not shown) [Compound 12] as well.
Marked response: 9.6

Exam item: // same read-out, input: CCCCCCCCC1(C)SC(=O)C=C1OCC(=O)NNc1cccc(C)c1 (stereo not shown) [Compound 11]
Marked response: 10.1

Exam item: Then this molecule: CCCCCCCCC1(C)SC(=O)C=C1OCC(=O)NNc1ccc(OC)cc1 (stereo not shown) [Compound 13]
Marked response: 18

---
Exam item: Given the molecule CCCCCCCCC1(C)SC(=O)C=C1OCC(=O)NNC(=O)c1ccncc1 (stereo not shown) [Compound 20] , what is its reported IC50?
Marked response: 33

Exam item: Next: CCCCCCCCC1(C)SC(=O)C=C1OCC(=O)NNc1ccc(Cl)c(Cl)c1 (stereo not shown) [Compound 15]
Marked response: 15.2

Exam item: // same read-out, input: CCCCCCCCC1(C)SC(=O)C=C1OCC(=O)NNc1nc2ccccc2s1 (single isomer, unassigned) [Compound 17]
Marked response: 38.7

Exam item: Then what about the molecule CCCCCCCCC1(C)SC(=O)C=C1OCC(=O)NNc1ccc(Cl)cc1Cl (stereo not shown) [Compound 14] ?
Marked response: 12.8
